meta.source: PubChem BioAssay AID1918945

Test system: 883617-216-R-J1-PDC complex spheroid viability;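 further: exposure lasted seven days after three days of spheroid growth; 100% = DMSO vehicle control luminescence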
measurement_notes: Anticancer human tumor 883617-216-R-J1-PDC patient-derived bladder carcinoma cell line growth inhibition
condition: second compound 3.16 µM; first compound 0.1 µM; hits give low values
Listed below: viability, T/C values for each entry.

molecule	viability, T/C [%]
CC(C)c1c(-c2ccccc2)nc2c(C#N)c[nH]n2c1=O + NC1CC1c1ccc(-c2cccc(O)c2)cc1	117
CC(C)CC(NC(=O)CNC(=O)c1cc(Cl)ccc1Cl)B1OC(=O)CC(CC(=O)O)(C(=O)O)O1 (stereo not given) + NC1CCC(NC2CC2c2ccccc2)CC1	1.62
O=C(C=Cn1cnc(-c2cc(C(F)(F)F)cc(C(F)(F)F)c2)n1)NNc1cnccn1 + NC1CCC(NC2CC2c2ccccc2)CC1	33
CC1(C)CCC(CN2CCN(c3ccc(C(=O)NS(=O)(=O)c4ccc(NCC5CCOCC5)c([N+](=O)[O-])c4)c(Oc4cnc5[nH]ccc5c4)c3)CC2)=C(c2ccc(Cl)cc2)C1 + NC1CCC(NC2CC2c2ccccc2)CC1	114
COc1cc(Nc2ncc3c(n2)-c2ccc(Cl)cc2C(c2c(F)cccc2OC)=NC3)ccc1C(=O)O + NC1CCC(NC2CC2c2ccccc2)CC1	50.8
